test system: NCI-H460; assay: WST-1 proliferation / cytotoxic test; type: cell-based; conditions: Homo sapiens, Lung, wst-1 cytotoxic test, 72 h
assayReadout: IC50 (µM)

{"compound": "CCOc1ccccc1NC(=O)c1ccc(C)c(S(=O)(=O)Nc2ccc(C)cc2)c1 [Compound 1]", "resultNumber": 0.5}

---

tested on: Granta-519; experiment: WST-1 proliferation / cytotoxic test; assay type: cell-based; details: Homo sapiens, Mantle cell lymphoma, wst-1 cytotoxic test, 72 h

{"smilesCode": "CCOc1ccccc1NC(=O)c1ccc(C)c(S(=O)(=O)Nc2ccc(C)cc2)c1", "unitInfo": "nM", "IC50": 500}

---

system: U87; assay: WST-1 proliferation / cytotoxic test; type: cell-based; conditions: Homo sapiens, U-87 MG, Brain, wst-1 cytotoxic test, 72 h
pIC50: −log10 of the molar value.

{"smilesCode": "CCOc1ccccc1NC(=O)c1ccc(C)c(S(=O)(=O)Nc2ccc(C)cc2)c1", "pIC50": 6.30}

Numbers sourced from patent EP2823816A1.
